Values compiled from patent US20240398783A1.

Biological target: TDP-43 binding to heparin (HS-GAG) (Homo sapiens)
Sequence (Q13148 whole entry): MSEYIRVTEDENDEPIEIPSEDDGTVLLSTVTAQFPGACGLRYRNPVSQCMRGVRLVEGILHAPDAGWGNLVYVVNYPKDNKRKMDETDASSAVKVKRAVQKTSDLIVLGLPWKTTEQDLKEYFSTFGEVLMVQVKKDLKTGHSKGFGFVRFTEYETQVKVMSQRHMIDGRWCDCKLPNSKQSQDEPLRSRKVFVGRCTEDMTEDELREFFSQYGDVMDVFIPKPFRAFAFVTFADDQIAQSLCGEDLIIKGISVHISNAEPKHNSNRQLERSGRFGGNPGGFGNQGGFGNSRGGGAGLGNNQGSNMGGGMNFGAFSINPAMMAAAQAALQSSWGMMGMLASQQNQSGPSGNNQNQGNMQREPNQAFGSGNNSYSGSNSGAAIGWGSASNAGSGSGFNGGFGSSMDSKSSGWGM
Assay: Inhibition of TDP-43 binding to immobilized heparin-BSA (ELISA)
Design: species or system porcine
Conditions: TDP43/Heparin Activity (IC-50), TDP-43, heparin-BSA
Structures can show the parent of a compound that is named as a salt.
measurementType: IC50 (µM)
# unit: µM | format: bare number

Here is how some compounds turned out for IC50.
1) Cc1ncn(-c2ccc(Nc3ncnc4cc(Cl)ccc34)cn2)c1C; 2.45
2) Clc1ccc2c(N/N=C/c3ccc(-n4ccnc4)nc3)ccnc2c1 [Compound 14, hydrochloride]; 4.32
3) CC(=NNc1ccnc2cc(Cl)ccc12)c1ccc(-n2cnc(C)c2C)nc1; 9.02
4) Clc1ccc2c(Nc3ccc(-n4cncn4)nc3)ccnc2c1; 6.54

Query :: Could you please provide reported IC50 for "Cc1ncn(-c2ncc(Nc3ncnc4cc(Cl)ccc34)cc2O)c1C" ? Thanks!
Result :: 7.42

====

Molecular target: SAA binding to heparin (HS-GAG) (Homo sapiens, UniProt P0DJI8)
Sequence (P0DJI8 19-122): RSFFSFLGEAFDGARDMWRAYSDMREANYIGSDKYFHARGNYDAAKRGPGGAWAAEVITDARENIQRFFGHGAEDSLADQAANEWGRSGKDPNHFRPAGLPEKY
Assay: Inhibition of SAA binding to immobilized heparin-BSA (ELISA)
Set-up: species or system porcine
Conditions: SAA, heparin-BSA; read-out: Serum Amyloid A/Heparin Activity (IC-50)
Catalogue of log10 IC50 readings, one per entry.
Annotation: log10 of IC50, µM basis.

Query :: Recall the reported log10 IC50 of "Clc1ccc2c(Nc3ccc(-n4ccnc4)nc3)ncnc2c1" on SAA binding to heparin (HS-GAG) (Homo sapiens, UniProt P0DJI8) and write it down.
Result :: 1.09

Query :: Recall the reported log10 IC50 of "CC(=NNc1ncnc2cc(Cl)ccc12)c1ccnc(-n2cnc(C)c2C)c1" on SAA binding to heparin (HS-GAG) (Homo sapiens, UniProt P0DJI8) and write it down.
Result :: 0.94

Query :: Recall the reported log10 IC50 of "C/C(=N\Nc1ncnc2cc(Cl)ccc12)c1ccc(-n2cc(C)nc2C)nc1" on SAA binding to heparin (HS-GAG) (Homo sapiens, UniProt P0DJI8) and write it down.
Result :: 1.35

Query :: Recall the reported log10 IC50 of "Cc1cc(-n2ccnc2)ccc1/C=N/Nc1ccnc2cc(Cl)ccc12" on SAA binding to heparin (HS-GAG) (Homo sapiens, UniProt P0DJI8) and write it down.
Result :: 0.91

Query :: Recall the reported log10 IC50 of "C/C(=N\Nc1nncc2cc(Cl)ccc12)c1ccc(-n2cc(C)nc2C)nc1" on SAA binding to heparin (HS-GAG) (Homo sapiens, UniProt P0DJI8) and write it down.
Result :: 0.90

Query :: Recall the reported log10 IC50 of "C/C(=N\Nc1ncnc2cc(F)ccc12)c1ccc(-n2cnc(C)c2C)nc1" on SAA binding to heparin (HS-GAG) (Homo sapiens, UniProt P0DJI8) and write it down.
Result :: 1.93

====

Biological target: Tau binding to heparin (HS-GAG) (Homo sapiens)
Sequence (P10636 with tags, fused parts or gaps): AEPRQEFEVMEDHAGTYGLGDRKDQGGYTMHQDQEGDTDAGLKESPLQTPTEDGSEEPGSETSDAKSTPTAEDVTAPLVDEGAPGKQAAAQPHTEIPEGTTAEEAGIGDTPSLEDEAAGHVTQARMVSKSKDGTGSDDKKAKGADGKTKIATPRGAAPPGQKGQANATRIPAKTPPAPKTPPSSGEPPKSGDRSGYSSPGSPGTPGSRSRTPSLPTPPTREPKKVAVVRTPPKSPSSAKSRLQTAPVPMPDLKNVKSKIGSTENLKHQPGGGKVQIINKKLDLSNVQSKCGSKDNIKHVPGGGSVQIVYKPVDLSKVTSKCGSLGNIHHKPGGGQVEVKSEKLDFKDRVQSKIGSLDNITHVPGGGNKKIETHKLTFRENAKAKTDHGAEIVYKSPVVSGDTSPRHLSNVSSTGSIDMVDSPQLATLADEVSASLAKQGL
Assay: Inhibition of Tau binding to immobilized heparin-BSA (ELISA)
Parameters: species or system porcine
Conditions: Tau, heparin-BSA; read-out: Tau/Heparin Activity (IC-50)
Counter-ions that a name gives are not always drawn.
measurementType: pIC50
To interpret pIC50, take it as minus log10 of a concentration measured in moles per litre.

1. Cc1cc(-n2ccnc2)ccc1/C=N/Nc1ccnc2cc(Cl)ccc12; 5.86
2. C/C(=N\Nc1ncnc2cc(Cl)ccc12)c1ccc(-n2cc(C)nc2C)nc1 [Compound 18]; 4.87
3. C/C(=N\Nc1nncc2cc(Cl)ccc12)c1ccc(-n2cc(C)nc2C)nc1; 4.42
4. C/C(=N\Nc1ncnc2cc(Cl)ccc12)c1ccc(-n2cc(C)nc2C)nc1 [Compound 27, hydrochloride]; 5.54
5. Clc1ccc2c(Nc3ccc(-n4ccnc4)nc3)ncnc2c1; 4.83
6. CC(=NNc1ncnc2cc(Cl)ccc12)c1ccnc(-n2cnc(C)c2C)c1; 4.21

Continue with the next compound.
Query :: Could you please provide reported pIC50 for "C/C(=N\Nc1ncnc2cc(F)ccc12)c1ccc(-n2cnc(C)c2C)nc1" ? Thanks!
Result :: 4.09
